For each of the compounds below, state its Ki.
biological target: human serotonin 5-HT6R (Homo sapiens, UniProt P50406); test: Radioligand binding, [3H]-LSD displacement; conditions: Fig. 2; read-out: pKi 5-HT6 (converted)
Sequence (P50406 whole entry): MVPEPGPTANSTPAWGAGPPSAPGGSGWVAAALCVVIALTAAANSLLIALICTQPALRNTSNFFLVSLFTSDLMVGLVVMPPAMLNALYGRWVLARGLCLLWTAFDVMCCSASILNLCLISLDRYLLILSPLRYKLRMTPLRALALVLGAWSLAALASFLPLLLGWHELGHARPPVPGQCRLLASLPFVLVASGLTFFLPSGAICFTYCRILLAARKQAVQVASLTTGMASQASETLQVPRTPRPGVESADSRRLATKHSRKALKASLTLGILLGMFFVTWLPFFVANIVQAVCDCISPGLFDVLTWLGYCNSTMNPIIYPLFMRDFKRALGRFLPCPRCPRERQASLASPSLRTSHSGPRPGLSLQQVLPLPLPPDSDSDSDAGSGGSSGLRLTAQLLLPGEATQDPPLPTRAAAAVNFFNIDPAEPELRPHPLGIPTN
Provide only the numeric value, understood in µM.

So what does the record say about Ki for COc1cccc(-c2cncn2C)c1 ?
8.91

Item: COc1cc(-c2cncn2C)c(OC)cc1I
5.37

Item: Cn1cncc1-c1c[nH]c2ccccc12
3.39

Item: COc1ccc2[nH]cc(-c3cncn3C3CC3)c2c1
5.25

* * *

molecular target: UniProt P34969; assay: Radioligand binding, [3H]-5-CT displacement; settings: read-out: Ki 5-HT7
quantity-measured: Ki (µM)
Provide only the numeric value, understood in µM.

So what does the record say about Ki for CCn1cncc1-c1cn(C)c2ccccc12 [1c] ?
5.62

Item: CCn1cncc1-c1c[nH]c2ccc(F)cc12 [1l]
0.302

Item: Cn1cncc1-c1c[nH]c2ccccc12 [1a]
0.385

Item: CCn1cncc1-c1c[nH]c2ccc(C(N)=O)cc12 [1za]
0.005

* * *

molecular target: human serotonin 5-HT7bR (Homo sapiens); assay: Radioligand binding, [3H]-5-CT displacement; conditions: Fig. 2; read-out: pKi 5-HT7 (converted)
quantity-measured: log10 Ki (log10 of the value in nM)
# values: log10(Ki), units nM

So what does the record say about log10 Ki for CCn1cncc1-c1ccc2[nH]ccc2c1 [3c] ?
3.72

Item: CCn1cncc1-c1c[nH]c2ccc(C#N)cc12 [1p]
3.40

Item: C=CCn1cncc1-c1c[nH]c2ccc(OC)cc12 [1i]
2.13

Item: CCn1cncc1-c1c[nH]c2cccc(Br)c12 [1k]
3.36

Item: COc1ccc2[nH]cc(-c3cnc[nH]3)c2c1 [1x]
3.08

Item: CCCn1cncc1-c1c[nH]c2ccc(OC)cc12 [1f]
1.81

* * *

target: human serotonin 5-HT1AR (Homo sapiens); assay: Radioligand binding, [3H]-8-OH-DPAT displacement; details: Fig. 2; read-out: pKi 5-HT1A (converted)
Sequence (P08908 whole entry): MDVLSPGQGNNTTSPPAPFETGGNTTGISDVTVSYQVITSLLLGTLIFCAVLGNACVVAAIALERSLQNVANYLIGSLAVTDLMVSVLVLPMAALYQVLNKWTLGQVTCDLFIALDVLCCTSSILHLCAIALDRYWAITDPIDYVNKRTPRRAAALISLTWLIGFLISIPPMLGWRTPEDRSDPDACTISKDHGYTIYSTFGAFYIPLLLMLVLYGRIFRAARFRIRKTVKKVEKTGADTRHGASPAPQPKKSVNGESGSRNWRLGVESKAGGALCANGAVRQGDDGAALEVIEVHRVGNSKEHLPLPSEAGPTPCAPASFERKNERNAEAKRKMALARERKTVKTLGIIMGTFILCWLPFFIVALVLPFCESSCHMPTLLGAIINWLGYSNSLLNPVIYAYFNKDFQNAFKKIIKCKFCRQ
For each of the molecules below, state its Ki.

So what does the record say about Ki for CCn1cncc1-c1ccc2[nH]ccc2c1 ?
> 10 µM

Item: COc1cc(-c2cncn2C)c(OC)cc1I
> 10 µM

Item: CCn1cncc1-c1c(C)[nH]c2ccc(OC)cc12
> 10 µM

Item: COc1ccc2[nH]cc(-c3cncn3C3CC3)c2c1
1.29 µM

Item: Cn1cncc1-c1ccccc1
> 10 µM

Item: COc1cccc(-c2cncn2C)c1
> 10 µM

Item: COc1ccccc1-c1cncn1C
> 10 µM

Item: CCn1cncc1-c1c[nH]c2ccc(C#N)cc12
> 10 µM

Item: CCn1cncc1-c1ccc2cc[nH]c2c1
> 10 µM

Item: COc1ccc(-c2cncn2C)cc1
> 10 µM

Item: COc1ccc(-c2c([N+](=O)[O-])ncn2C)cc1
> 10 µM

Item: COc1ccc2[nH]cc(-c3cnc[nH]3)c2c1
6.76 µM

Item: CCn1cncc1-c1c[nH]c2cccc(Br)c12
> 10 µM

Item: CCn1cncc1-c1cn(C)c2ccccc12
> 10 µM

Item: CCn1cncc1-c1c[nH]c2ccc(OCc3ccccc3)cc12
> 10 µM

Item: CCn1cncc1-c1c[nH]c2cc(Br)ccc12
> 10 µM

Item: CCCCn1cncc1-c1c[nH]c2ccc(OC)cc12
0.661 µM

Item: CCCn1cncc1-c1c[nH]c2ccc(OC)cc12
> 10 µM

Item: C=CCn1cncc1-c1c[nH]c2ccc(OC)cc12
0.537 µM

Item: COc1ccc2[nH]cc(-c3cncn3C)c2c1
0.851 µM

Item: CCn1cncc1-c1cc2ccccc2[nH]1
> 10 µM

Item: CCn1cncc1-c1cn(C)c2ccc(OC)cc12
5.01 µM

Item: Cn1cncc1-c1c[nH]c2ccccc12
4.47 µM

* * *

biological target: UniProt P14416; assay: Radioligand binding, [3H]-raclopride displacement
For each of the compounds below, state its Ki.

API: value(readout= Ki, system= UniProt P14416, query= COc1ccc2[nH]cc(CCN)c2c1 [5-methoxytryptamine, reference compound] )
> 10 µM

Item: Cc1ccc2[nH]cc(CCN)c2c1 [5-methyltryptamine, reference compound]
> 10 µM

Item: Cn1cc(CCN)c2ccccc21 [1-methyltryptamine, reference compound]
6.54 µM

Item: NCCc1c[nH]c2ccc(Cl)cc12 [5-chlorotryptamine, reference compound]
2.44 µM

* * *

target: human serotonin 5-HT7bR (Homo sapiens, UniProt P34969); test: Radioligand binding, [3H]-5-CT displacement; details: Fig. 2; read-out: pKi 5-HT7 (converted)
Sequence (P34969 1-432 limits assumed): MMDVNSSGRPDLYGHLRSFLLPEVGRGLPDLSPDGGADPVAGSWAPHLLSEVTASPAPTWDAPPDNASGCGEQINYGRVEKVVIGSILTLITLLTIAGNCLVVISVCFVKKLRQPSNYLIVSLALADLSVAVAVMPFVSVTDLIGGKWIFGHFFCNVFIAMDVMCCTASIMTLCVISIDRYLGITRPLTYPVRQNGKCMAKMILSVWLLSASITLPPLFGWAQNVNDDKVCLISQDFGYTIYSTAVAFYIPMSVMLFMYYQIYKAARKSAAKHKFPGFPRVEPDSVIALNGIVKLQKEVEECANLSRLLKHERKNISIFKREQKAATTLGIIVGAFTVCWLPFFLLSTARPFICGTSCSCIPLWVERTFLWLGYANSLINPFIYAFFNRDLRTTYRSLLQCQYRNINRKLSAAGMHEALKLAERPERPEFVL
For each of the compounds below, state its Ki.

So what does the record say about Ki for COc1ccccc1-c1cncn1C [2d] ?
2450 nM

Item: CCn1cncc1-c1cc2ccccc2[nH]1 [3b]
> 10000 nM

Item: CCn1cncc1-c1c[nH]c2ccc(OCc3ccccc3)cc12 [1y]
3720 nM

Item: COc1ccc(-c2cncn2C)cc1 [2b]
> 10000 nM

Item: COc1ccc2[nH]cc(-c3cncn3C3CC3)c2c1 [1h]
3310 nM

Item: CCCCn1cncc1-c1c[nH]c2ccc(OC)cc12 [1g]
324 nM

Item: CCn1cncc1-c1ccc2cc[nH]c2c1 [3d]
2630 nM

* * *

biological target: human serotonin 5-HT2A receptor (Homo sapiens); construct: host or cells: CHO-K1; assay: Radioligand binding, [3H]-ketanserin displacement; conditions: Fig. 2; read-out: pKi 5-HT2A (converted)
For each of the molecules below, state its Ki.
Provide only the numeric value, understood in µM.

So what does the record say about Ki for CCCn1cncc1-c1c[nH]c2ccc(OC)cc12 [1f] ?
4.27

Item: Cn1cncc1-c1c[nH]c2ccccc12 [1a]
6.92

* * *

test: Pharmacokinetics after i.p. administration in mice; assay type: in vivo, CD-1 mice; conditions: male, CD-1, mouse, plasma, ip, i.p. 5 mg/kg, read-out: MRT plasma (converted)
quantity-measured: MRT (min)
Provide only the numeric value, understood in min.

So what does the record say about MRT for CCn1cncc1-c1c[nH]c2ccc(I)cc12 [1o] ?
27

* * *

molecular target: human serotonin 5-HT2A receptor (Homo sapiens, UniProt P28223); construct: host or cells: CHO-K1; test: Radioligand binding, [3H]-ketanserin displacement
Sequence (P28223 whole entry): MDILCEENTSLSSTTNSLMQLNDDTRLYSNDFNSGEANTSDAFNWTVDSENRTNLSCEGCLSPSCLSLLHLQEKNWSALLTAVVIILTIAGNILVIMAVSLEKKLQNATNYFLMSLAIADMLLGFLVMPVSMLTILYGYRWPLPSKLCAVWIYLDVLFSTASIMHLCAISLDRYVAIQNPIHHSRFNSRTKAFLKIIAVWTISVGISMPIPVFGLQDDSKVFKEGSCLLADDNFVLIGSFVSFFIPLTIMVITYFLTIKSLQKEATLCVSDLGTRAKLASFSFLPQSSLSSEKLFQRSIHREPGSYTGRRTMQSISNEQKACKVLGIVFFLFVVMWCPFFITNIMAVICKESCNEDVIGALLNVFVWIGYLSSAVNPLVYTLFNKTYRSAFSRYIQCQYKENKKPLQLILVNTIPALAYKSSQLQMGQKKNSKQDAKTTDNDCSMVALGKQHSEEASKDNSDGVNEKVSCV
quantity-measured: Ki
Answer format reminder: number followed by unit.

So what does the record say about Ki for Cc1ccc2[nH]cc(CCN)c2c1 [5-methyltryptamine, reference compound] ?
2280 nM

Item: Cn1cc(CCN)c2ccccc21 [1-methyltryptamine, reference compound]
6590 nM

Item: NCCc1c[nH]c2ccc(Cl)cc12 [5-chlorotryptamine, reference compound]
317 nM

* * *

target: human serotonin 5-HT6R (Homo sapiens, UniProt P50406); assay: Radioligand binding, [3H]-LSD displacement; conditions: Fig. 2; read-out: pKi 5-HT6 (converted)
quantity-measured: Ki (µM)
Provide only the numeric value, understood in µM.

So what does the record say about Ki for CCCCn1cncc1-c1c[nH]c2ccc(OC)cc12 ?
5.89

Item: COc1ccc2[nH]cc(-c3cnc[nH]3)c2c1
4.07

Item: COc1ccc2[nH]cc(-c3cncn3C)c2c1
2.4

Item: CCn1cncc1-c1cn(C)c2ccccc12
7.76

Item: CCn1cncc1-c1c[nH]c2cccc(Br)c12
8.71

Item: C=CCn1cncc1-c1c[nH]c2ccc(OC)cc12
5.75

Item: CCn1cncc1-c1c[nH]c2cc(Br)ccc12
6.92

Item: CCn1cncc1-c1ccc2[nH]ccc2c1
3.55

Item: CCn1cncc1-c1ccc2cc[nH]c2c1
4.57

Item: COc1ccc(-c2cncn2C)cc1
5.37

Item: CCn1cncc1-c1cn(C)c2ccc(OC)cc12
5.5

* * *

For each of the compounds below, state its Ki.
biological target: human dopamine D2LR (Homo sapiens, UniProt P14416); experiment: Radioligand binding, [3H]-raclopride displacement; details: Fig. 2; read-out: pKi D2 (converted)
Sequence (P14416 whole entry): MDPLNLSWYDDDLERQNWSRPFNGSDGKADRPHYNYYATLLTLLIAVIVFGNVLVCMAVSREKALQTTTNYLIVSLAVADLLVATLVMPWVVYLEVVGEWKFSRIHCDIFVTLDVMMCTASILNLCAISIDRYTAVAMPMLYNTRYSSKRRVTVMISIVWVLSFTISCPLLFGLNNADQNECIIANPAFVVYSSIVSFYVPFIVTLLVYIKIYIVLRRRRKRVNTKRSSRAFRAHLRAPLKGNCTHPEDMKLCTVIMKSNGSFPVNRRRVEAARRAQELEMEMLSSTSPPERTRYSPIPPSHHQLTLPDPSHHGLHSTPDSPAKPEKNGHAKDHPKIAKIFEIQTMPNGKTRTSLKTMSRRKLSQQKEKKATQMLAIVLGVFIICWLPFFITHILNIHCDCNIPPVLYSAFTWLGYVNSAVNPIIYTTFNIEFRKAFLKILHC

So what does the record say about Ki for CCn1cncc1-c1c[nH]c2cccc(Br)c12 ?
> 10 µM

Item: CCn1cncc1-c1cn(C)c2ccc(OC)cc12
> 10 µM

Item: COc1ccc2[nH]cc(-c3cncn3C3CC3)c2c1
> 10 µM

Item: COc1cc(-c2cncn2C)c(OC)cc1I
6.92 µM

Item: CCn1cncc1-c1c[nH]c2cc(Br)ccc12
> 10 µM

Item: COc1ccc2[nH]cc(-c3cncn3C)c2c1
> 10 µM

Item: CCCn1cncc1-c1c[nH]c2ccc(OC)cc12
> 10 µM

Item: COc1ccc(-c2c([N+](=O)[O-])ncn2C)cc1
> 10 µM

Item: CCCCn1cncc1-c1c[nH]c2ccc(OC)cc12
> 10 µM

Item: CCn1cncc1-c1c(C)[nH]c2ccc(OC)cc12
> 10 µM

Item: Cn1cncc1-c1c[nH]c2ccccc12
6.92 µM

Item: COc1ccc2[nH]cc(-c3cnc[nH]3)c2c1
6.17 µM

Item: CCn1cncc1-c1cn(C)c2ccccc12
> 10 µM

Item: COc1ccccc1-c1cncn1C
> 10 µM

Item: CCn1cncc1-c1cc2ccccc2[nH]1
> 10 µM

Item: CCn1cncc1-c1c[nH]c2ccc(C#N)cc12
> 10 µM

Item: Cn1cncc1-c1ccccc1
> 10 µM

Item: COc1cccc(-c2cncn2C)c1
> 10 µM

Item: COc1ccc(-c2cncn2C)cc1
> 10 µM

Item: CCn1cncc1-c1ccc2cc[nH]c2c1
> 10 µM

Item: CCn1cncc1-c1ccc2[nH]ccc2c1
> 10 µM

Item: CCn1cncc1-c1c[nH]c2ccc(OCc3ccccc3)cc12
4.47 µM

Item: C=CCn1cncc1-c1c[nH]c2ccc(OC)cc12
> 10 µM
